Numbers sourced from PubChem BioAssay (NCI).

Test system: MDA-MB-435 melanoma
Assay protocol: NCI-60 one-dose screen, 48 h (100 = growth as untreated, 0 = no growth, -100 = all killed)
Cond: 10 µM unless noted
This is part of a sample that, as a whole, favours compounds with a hit. Of some 83,000 tested, about 20% had one in any assay.
Cut-off -20% on growth: below means YES, at or above means NO.

1) CCOC(=O)c1ccc2c(c1)[n+](=O)c(C(=O)C1CCCS1)c(C(F)(F)F)n2[O-] (configuration not stated); YES
2) CN(C)CCCCC(C(=O)CBr)(c1ccccc1)c1ccccc1; NO
3) COc1cccc(-c2nn(-c3ccccc3)cc2-c2ccnc(NCCNS(=O)(=O)c3cccc(F)c3)c2)c1; NO
4) N#CC1=C(N)Oc2c(sc3c(F)cccc23)C1c1ccc(Cl)cc1 (configuration not stated); YES
5) C#CCN=C[C@]12CC[C@@H](C(=C)C)[C@@H]1[C@H]1CC[C@@H]3[C@@]4(C)CCC(=O)C(C)(C)[C@@H]4CC[C@@]3(C)[C@]1(C)CC2; NO
6) O=C(/C=C\c1ccc2c(c1)OCO2)/C=C/c1ccc2c(c1)OCO2; NO
7) Cn1cc(-c2nc(-c3cn(C)c4ncccc34)cs2)c2cc(F)ccc21; NO
8) O=C1Nc2ccccc2/C1=C/c1cn(CCCn2c3ccccc3c(=O)c3ccccc32)c2ccccc12; NO
9) COc1ccc(-c2nc(Nc3ccc(-c4nc5ccccc5[nH]4)cc3)nc(N3CCOCC3)n2)cc1; YES
10) Fc1ccc2nc(-c3cc(-c4ccc5c(c4)OCO5)n[nH]3)[nH]c2c1; NO
11) Nc1nc(Br)nc2c1ncn2C1CC(O)C(CO)O1 (configuration not stated); NO
12) COC(=O)C(N)CSC(c1ccccc1)(c1ccccc1)c1ccccc1 (configuration not stated); YES

====

Tested on: K-562 leukemia
Assay protocol: NCI-60 one-dose screen, 48 h (100 = growth as untreated, 0 = no growth, -100 = all killed)
Cond: 10 µM unless noted
Compounds without any hit were thinned out: in the full panel of roughly 83,000, 20% have a hit.
Experimental readout: growth (%)

1. CCCCCCCC(=O)SCC/C=C/[C@@H]1CC(=O)NCc2cccc(n2)CN(Cc2ccc3ccccc3c2)CC(=O)N[C@@H](C(C)C)C(=O)O1; 13.8
2. O=C1c2cc3c(cc2-c2c1c1ccc(Cl)cc1c(=O)n2C[C@H](O)[C@@H](O)[C@H](O)CO)OCO3; 12
3. CC(C)(C)CC(C)(C)c1ccc(OCCOCC[N+](C)(C)CC(=O)[O-])cc1; 105
4. Nc1ccc(Cl)cn1; 107
5. COc1cc(/C=C2\C(=O)N(CC(O)COc3cc(O)c4c(=O)cc(-c5ccccc5)oc4c3)c3ccccc32)cc(OC)c1O (stereo not given); 71.4

====

Measured growth, listed per entry.
Tested on: RPMI-8226 leukemia
Assay protocol: NCI-60 one-dose screen, 48 h (100 = growth as untreated, 0 = no growth, -100 = all killed)
Cond: 10 µM unless noted
About 83,000 compounds went through this panel and 20% of them were active in at least one assay; those are over-represented in the sample as a whole.
Experimental readout: growth (%)

1. C#CCn1c2c(c3ccccc31)C[C@]1(C)[C@H]3CC[C@@H]4[C@@H]5C(=CCC[C@H]5C(=C)C)CC[C@@]4(C)[C@]3(C)CC[C@H]1C2(C)C; 106
2. C[Si](C)(C)Cc1ccccc1; 71.6
3. CN(C)CCCC1(c2ccc(F)cc2)OCc2cc(-c3ccc(C(F)(F)F)nc3)ccc21 (stereo not drawn); 69.2
4. Cn1c2c(Cl)c(Cl)ccc2c2c(C#N)c[nH]c(=O)c21; 65.2
5. N#C/C(=C\c1ccc(-c2ccc(Br)cc2)o1)c1nc(-c2cccs2)cs1; 92.8
6. Cn1cc(-c2csc(-c3c[nH]c4ccc(F)cc34)n2)c2cccnc21; 52
7. COc1ccc2c(c1)C/C(=C\c1cc(-c3ccc4c(c3)OCO4)n[nH]1)C2=O; 45.8
8. Cc1csc(-c2ccc3c(c2)COC3(CCCN(C)C)c2ccc(F)cc2)c1 (stereo not drawn); -31.5

====

Tested on: COLO 205 colon
Assay protocol: NCI-60 one-dose screen, 48 h (100 = growth as untreated, 0 = no growth, -100 = all killed)
Cond: 10 µM unless noted
The panel holds about 83,000 compounds, 20% with a hit somewhere; the sample as a whole holds those more often.
Rule: growth under 50% gives class 0, otherwise class 1.

1. CCc1ccccc1NC(=O)c1sc2nc3c(cc2c1N)CCCC3; class 0
2. Cc1nnc2nc(N)[nH]n2c1=O; class 1
3. C[C@]12CC[C@@H]3c4ccc(O)cc4CC[C@H]3[C@@H]1C[C@H](O)[C@@H]2O; class 1
4. O=C(O)/C(=C/c1ccc(O)cc1)c1ccccc1; class 1

====

Test system: UACC-257 melanoma
Assay protocol: NCI-60 one-dose screen, 48 h (100 = growth as untreated, 0 = no growth, -100 = all killed)
Cond: 10 µM unless noted
About 83,000 compounds went through this panel and 20% of them were active in at least one assay; those are over-represented in the sample as a whole.
Below, each entry is listed with its recorded growth.
Experimental readout: growth (%)

1) CC(=O)n1c(/C(C#N)=C/c2ccc(N(C)C)cc2)cc2ccccc21; 68.6
2) CCCCC/C(=C\c1ccccc1)C1OC(C)C(C)O1 (stereo not drawn); 70.1
3) O=C(O)c1cccc2c1C(=O)N(c1ccc3c(c1)Cc1ccccc1-3)C2=O; 109
4) CC(=O)c1c(C)[nH]c(-c2nc3ccc(N4CCN(C)CC4)cc3[nH]2)c1-c1ccc(N(C)C)cc1; 36.4
5) Brc1ccc2c(c1)c(-c1nc(-c3c[nH]c4ncccc34)cs1)cn2CCCN1CCCCC1; 66.1
6) O=C1C(=O)N(CCCCn2cc(-c3ccccc3)nn2)c2ccccc21; 100
7) CCSc1sc(-c2ccc(C)cc2)nc1[P+](c1ccccc1)(c1ccccc1)c1ccccc1; -3.94
8) C=C(C)[C@@H]1CC[C@]2(C=O)CC[C@]3(C)[C@H](CC[C@@H]4[C@@]5(C)C/C(=C/c6cccnc6)C(=O)C(C)(C)[C@@H]5CC[C@]43C)[C@@H]12; 84.5
9) CCCCCC1CCCCN1C(=O)OCC (stereo not drawn); 106
10) Nc1nc(Br)nc2c1ncn2C1CC(O)C(CO)O1 (stereo not drawn); 87.7
11) Fc1ccc2c(c1)c(-c1nc(-c3c[nH]c4ncccc34)cs1)cn2CCCN1CCCCC1; 100
12) COc1cccc(NC(=O)c2sc3nc4c(cc3c2N)C(=O)CCC4)c1; 66.5
13) COc1cc(/C=C/c2cc(/C=C/c3ccc(O)c(OC)c3)n(-c3ccccc3)c(=O)n2)ccc1O; 88.9

====

System: NCI-H226 lung
Assay protocol: NCI-60 one-dose screen, 48 h (100 = growth as untreated, 0 = no growth, -100 = all killed)
Cond: 10 µM unless noted
Protocol: Growth inhibition of the NCI-H226 human Non-Small Cell Lung tumor cell line is measured as a screen for anti-cancer activity. Cells are grown in 96 well plates and exposed to the test compound for 48 hours. Compounds are tested at a single concentration, which is 10^-5 M for most compounds. The reported endpoint is percent growth (GI% or GIPRCNT), where numbers from 0 - 100% represent growth inhibition, and numbers from -100% - 0 represent cell death. […]
About 83,000 compounds went through this panel and 20% of them were active in at least one assay; those are over-represented in the sample as a whole.
Known growth of a selection of molecules
Experimental readout: growth (%)

1. Cc1ccc(N(CC(=O)Nc2ccc(S(=O)(=O)N3CCC(N4CCCC4)CC3)cc2)S(=O)(=O)c2ccc(Cl)cc2)cc1; 64.7
2. CCCCCCCN(CCCCCCC)C(=N)c1ccnc2ccccc12; 39.3
3. O=C1/C(=C\c2ccco2)SC(=S)N1CCc1ccc(O)cc1; 101
4. COc1cc(-c2c(C#N)c(-c3cccs3)nc3c2c(-c2ccccc2)nn3-c2ccccc2)ccc1O; 91.2
5. C=C1C(=O)O[C@H]2[C@H]1CC/C(COC(=O)NCc1cc3ccccc3[nH]1)=C\CC[C@@]1(C)O[C@@H]21; 64.5
6. Cc1cc2nc3c4cc(Cl)ccc4n(CCN(C)C)c3nc2cc1C; 10.4
7. Cc1cc(N(CCNc2ccnc3cc(Cl)ccc23)Cc2ccco2)nc(Cl)n1; -62.3
8. N#CC1=C(N)Oc2c(c(N)nn2-c2ccccc2)C1c1ccc(Cl)cc1Cl (stereo not drawn); 102
9. COc1ccc2c(c1)c1nc3cc(C)c(C)cc3nc1n2CCN(C)C; 7.41
10. Cc1ccc(Sc2sc(-c3ccccc3)nc2[P+](c2ccccc2)(c2ccccc2)c2ccccc2)cc1; -3.15
11. CCCCCC1CCCCN1C(=O)OCC (stereo not drawn); 122
12. O=C1c2cc3c(cc2-c2c1c1ccc(Cl)cc1c(=O)n2C[C@H](O)[C@@H](O)[C@H](O)CO)OCO3; -49.6
13. Cc1ccc2oc(=O)cc(-c3sc(N4CCCCC4)nc3-c3ccccc3)c2c1; 90.4
